Where do the numbers come from? From the Immune Epitope Database (IEDB).

- tgt: HLA-A*02:01
- protocol_description: IEDB peptide-MHC binding, purified MHC/direct/fluorescence; filed as Kd, often an IC50 or EC50 that approximates it; bounds were set here for any values at or beyond the usual limits of such assays
- conditions: source organism: Mycobacterium tuberculosis str. Haarlem
experimental_endpoint: Kd

INSERT INTO assay_data (monomer_sequence, tgt, measurement) VALUES
  ('LPVEYLQVP', 'HLA-A*02:01', '≥ 20 µM');

----------
- tgt: HLA-B*27:05
- protocol_description: IEDB peptide-MHC binding, purified MHC/direct/fluorescence; filed as Kd, often an IC50 or EC50 that approximates it; bounds were set here for any values at or beyond the usual limits of such assays
- conditions: source organism: Campylobacter jejuni RM1221
experimental_endpoint: Kd

INSERT INTO assay_data (monomer_sequence, tgt, experimental_endpoint, measurement) VALUES
  ('KNDAVYIGY', 'HLA-B*27:05', 'Kd', '≥ 20 µM');
